Known IC50 of a selection of compounds
- measured on: recombinant human Bcl-2-G101V protein (Homo sapiens (Human), UniProt P10415, G101V)
- assay explanation: Bcl-2-G101V TR-FRET Assay
- Format: binding
- stated conditions: Bcl-2 G101V mutant, TR-FRET; read-out: Biochemical assay (IC50, nM) Bcl-2 G101V
# output: numeric value plus its unit

Consider the worked cases shown below.
CC(C)c1ccccc1C1CN(Cc2cccc3occc23)CCN1C1CC2(CCN(c3ccc(C(=O)NS(=O)(=O)c4ccc(NC[C@H]5CC[C@](C)(O)CC5)c([N+](=O)[O-])c4)c(Oc4cnc5[nH]ccc5c4)c3)CC2)C1 (stereo partly shown) :: 2.6 nM
CC(C)c1ccccc1C1CN(Cc2ccccc2)CCN1C1CC2(CCN(c3ccc(C(=O)NS(=O)(=O)c4ccc(NC[C@H]5CC[C@](C)(O)CC5)c([N+](=O)[O-])c4)c(Oc4cnc5[nH]ccc5c4)c3)CC2)C1 (stereo partly shown) :: 2.1 nM
COc1cc(CN2CCN(C3CC4(C3)CN(c3ccc(C(=O)NS(=O)(=O)c5ccc(NC[C@H]6CC[C@](C)(O)CC6)c([N+](=O)[O-])c5)c(Oc5cnc6[nH]cc(F)c6c5)c3)C4)[C@H](c3ccccc3C(C)C)C2)cc(F)c1OC :: 0.52 nM
[2H]C([2H])([2H])Oc1ccc(CN2CCN(C3CC4(CCN(c5ccc(C(=O)NS(=O)(=O)c6ccc(NC[C@H]7CC[C@](C)(O)CC7)c([N+](=O)[O-])c6)c(Oc6cnc7[nH]cc(F)c7c6)c5)CC4)C3)[C@H](c3ccccc3C(C)C)C2)cc1OC([2H])([2H])[2H] :: 0.17 nM

Answer with IC50 of COc1cc(CN2CCN(C3CC4(C3)CN(c3ccc(C(=O)NS(=O)(=O)c5ccc(NC[C@H]6CC[C@](C)(O)CC6)c([N+](=O)[O-])c5)c(Oc5cnc6[nH]cc(F)c6c5)c3)C4)[C@H](c3ccccc3C(C)C)C2)ccc1N1CC(OC)C1 measured for recombinant human Bcl-2-G101V protein (Homo sapiens (Human), UniProt P10415, G101V).
0.64 nM

Report its IC50 with recombinant human Bcl-2-G101V protein (Homo sapiens (Human), UniProt P10415, G101V) as the test system: COc1ccc(CN2CCN(C3CC4(CCN(c5ccc(C(=O)NS(=O)(=O)c6ccc(NCC7CCOCC7)c([N+](=O)[O-])c6)c(Oc6cnc7[nH]ccc7c6)c5)CC4)C3)C(c3ccccc3C)C2)cc1 (stereo not shown)
4.1 nM

GET IC50 where system = recombinant human Bcl-2-G101V protein (Homo sapiens (Human), UniProt P10415, G101V) and item = COc1cc(CN2CCN(C3CC4(C3)CN(c3ccc(C(=O)NS(=O)(=O)c5ccc(NC[C@H]6CC[C@](C)(O)CC6)c([N+](=O)[O-])c5)c(Oc5cnc6[nH]cc(F)c6c5)c3)C4)[C@H](c3ccccc3C(C)C)C2)ccc1C1CCOCC1
0.9 nM

Using recombinant human Bcl-2-G101V protein (Homo sapiens (Human), UniProt P10415, G101V) as the test system, report measured IC50 of COc1ccc(CN2CCN(C3CC4(CCN(c5ccc(C(=O)NS(=O)(=O)c6ccc(NC[C@@H]7CN(C8COC8)CCO7)c([N+](=O)[O-])c6)c(Oc6cnc7[nH]ccc7c6)c5)CC4)C3)[C@@H](c3ccccc3C(C)C)C2)cc1 (single isomer, unassigned) .
0.15 nM
